meta.source: patent US20210363269A1

system tested: T1, NOD mouse SIRP-α (mouse (NOD strain))
T1 chain: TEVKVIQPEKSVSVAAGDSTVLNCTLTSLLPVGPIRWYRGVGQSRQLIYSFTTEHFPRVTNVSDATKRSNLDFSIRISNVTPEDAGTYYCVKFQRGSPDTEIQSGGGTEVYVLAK
test protocol: SPR, antibody on GLC chip
quantity name: binding result

antibody 135 variant, light chain Mut / heavy chain wt (antibody, V domains shown) VH: DVQLVESGGGVVRPGESLRLSCAASGFSFSIYAMSWVRQAPGEGLEWVSTIGADDTYYADSVKGRFTISRDNSKNTLYLQMNSLRAEDTAVYYCAKDSTVGWSGDFFDYWGLGTLVTVSS VL: EIVLTQSPATLSVSPGERVTLSCRASQNVRSDIAWYQQKPGQAPRLLIYAASSRDTGIPARFSGSGSGTDFTLTISSLQSEDFGVYYCQQYYDWPPFTFGGGTKVEIK :: no binding
antibody 119 variant, light chain Mut / heavy chain Mut_V34M (antibody, V domains shown) VH: EVQLLESGGGVVQPGGSLRLSCAASGFSFSNFAMTWVRQAPGKGLEWVSTIGSGDTYYADSVKGRFTISRDNSKNTLYLQMNSLRAEDTAVYYCAKDSTVSWSGDFFDYWGQGTLVTVSS VL: EIVLTQSPATLSVSPGERATLSCRASQNVKNDLAWYQQKPGQAPRLLIYAARIRETGIPARFSGSGSGTEFTLTISSLQSEDFAVYYCQQYYDWPPFTFGGGTKVEIK :: no binding
